Entry source: patent US4069016A

# Measured target: HSA (Homo sapiens)
# Sequence (P02768 25-609): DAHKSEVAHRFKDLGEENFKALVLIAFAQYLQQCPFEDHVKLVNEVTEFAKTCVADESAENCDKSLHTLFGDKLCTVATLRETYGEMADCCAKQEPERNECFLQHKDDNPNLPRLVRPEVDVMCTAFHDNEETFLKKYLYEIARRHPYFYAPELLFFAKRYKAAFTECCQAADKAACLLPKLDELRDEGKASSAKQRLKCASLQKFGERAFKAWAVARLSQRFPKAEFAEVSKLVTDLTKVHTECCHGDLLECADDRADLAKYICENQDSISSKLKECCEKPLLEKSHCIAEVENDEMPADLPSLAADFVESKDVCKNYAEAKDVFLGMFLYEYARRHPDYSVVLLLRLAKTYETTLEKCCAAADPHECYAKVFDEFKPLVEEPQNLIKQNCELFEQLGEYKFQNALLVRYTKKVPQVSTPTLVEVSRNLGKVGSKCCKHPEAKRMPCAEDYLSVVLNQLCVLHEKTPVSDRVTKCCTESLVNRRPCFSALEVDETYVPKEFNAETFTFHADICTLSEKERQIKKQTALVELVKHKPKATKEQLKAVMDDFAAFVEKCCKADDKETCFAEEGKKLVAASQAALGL
# Method summary: Bromophenol blue-HSA binding and competitive displacement by bilirubin, ultrafiltration, 590 nm
pKd: −log10 of the molar value.

>  <Compound>
O=S1(=O)OC(c2cc(Br)c(O)c(Br)c2)(c2cc(Br)c(O)c(Br)c2)c2ccccc21 [bromophenol blue, reference compound]

>  <pKd>
6.30

$$$$
